Below, each entry is listed alongside its reported pKd.
# Study Target: T1, pepN48 (peptide of the 48 N-terminal extracellular amino acids of human CXCR2) (human, biotin labeled on its N-terminus (panning, ELISA, SPR))
# T1 construct: Synthetic; also called N-terminus of CXCR2
# T1 peptide: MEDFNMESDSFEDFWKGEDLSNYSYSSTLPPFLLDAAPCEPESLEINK
# Experiment Notes: SPR, Biacore T200; biotinylated pepN48 on SA chip;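 note: antibodies flowed in HBS-EP+ running buffer over the immobilized antigen at 0.5 to 10 nM, kinetic traces fitted to a protein-protein interaction model to derive constants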
// pKd here means minus log10 of the molar concentration (mol/L)

abN48-1 (antibody, V domains shown, Format as tested not clearly stated (sub-cloned to pFuse vector, expressed in HEK293T)) VH: QVQLVQSGAEVKKPGSSVKVSCKASGGTLSSYAISWVRQAPGQGPEWMGWINPNSGGTNYAQKFQGRVTMTRDTSISTAYMELSRLRPDDTAVYYCASGFCTRTICFVYWGQGTLVTVSS VL: QAVLTQPSSLSASPGASVSLTCTLRSGINVGAYRIYWYQQKPGSPPQFLLRYKSDSDKQQGSGVPSRFSGSRDASANAGILLISGLRSEDEADYYCAIWHSSAWVFGGGTQLTVLG : 9.59

The reported value for abN48-2-IgG1 (antibody, V domains shown, Full-length human IgG1, lambda light chain; also called ab48-2-IgG1; abN48-2-IgG2 (as misprinted)) VH: QVQLVQSGAEVKKPGSSVKVSCKASGGTLSSYAISWVRQAPGQGPEWMGWINPNSGGTNYAQKFQGRVTMTRDTSISTAYMELSRLRPDDTAVYYCASGYCSRTRCYDYWGQGTLVTVSS VL: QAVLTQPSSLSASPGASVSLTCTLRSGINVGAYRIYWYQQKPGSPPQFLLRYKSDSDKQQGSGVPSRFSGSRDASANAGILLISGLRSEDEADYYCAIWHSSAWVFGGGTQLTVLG in terms of pKd is 11.14
